Assay: DUSP6 inhibitors restoring Erk phosphorylation by chemical complementation, primary imaging in DUSP6-transfected HeLa (AID 609)
Settings: HeLa MKP-3 transfected, phospho-Erk imaging KS statistic; measured here: nuclear pErk red intensity z-score; at 10 µM; stronger effect = higher value; cells stimulated with TPA for 15 min
Please provide measured z-score for the entries that follow.
One number for each entry.

chem_smiles: CC(C)CCNc1nc2c(cc1C#N)COC(C)(C)C2
z-score: -1.16

Hi team, please reply with z-score for each item in this list.
1. Fc1ccc2[nH]c3c(N4CCSCC4)ncnc3c2c1
2. CN1CCN(Cc2c(O)c(Cl)cc3c(-c4ccccc4)cc(=O)oc23)CC1
3. CCC(NC(=O)Nn1cnnc1)(C(F)(F)F)C(F)(F)F

[1.27, -0.155, 1.12]

Fill in z-score for each of the 2 compounds listed.
1. COc1ccc(CC(=O)Nc2cccc(-c3nnc(-c4ccco4)o3)c2)cc1
2. COC(=O)c1[nH]c2ccc(Cl)cc2c1NC(=O)C1CC1

[1.63, -0.572]

----------
Please go through the items and note down their inhibition.
Target: Dual specificity protein phosphatase 6 (Homo sapiens)
Experiment: DUSP6 inhibitors restoring Erk phosphorylation by chemical complementation, primary imaging in DUSP6-transfected HeLa (AID 609);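 as to inhibition: phospho-Erk level distribution per well compared with pooled transfected vehicle control wells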
Settings: HeLa MKP-3 transfected, phospho-Erk imaging KS statistic; at 10 µM; stronger effect = higher value; cells stimulated with TPA for 15 min
Give bare numbers, in %.

molecule: CN1CCN(c2c3c(c(C#N)c4nc5ccccc5n24)CCCC3)CC1
test_system: Dual specificity protein phosphatase 6 (Homo sapiens)
inhibition [%]: 5.95
--
molecule: CCN(CC)c1nc(N2CCOCC2)c(C#N)c2c1CN(C)CC2
test_system: Dual specificity protein phosphatase 6 (Homo sapiens)
inhibition [%]: 7.21

Below are 5 molecules. Give each one its inhibition.
1. Cc1ccc(OCC(O)CNS(=O)(=O)c2ccccc2C(=O)O)cc1 (stereo unspecified)
2. O=C(c1ccc2c3c(cccc13)C(=O)N(O)C2=O)N1CCCCC1
3. CCCCSc1nnc(-c2ccc(NC(C)=O)cc2)n1C
4. CCCCc1cc(=O)oc2c(CN3CCCC3)c(O)ccc12
5. Cc1nn(CCO)c2c1C(=O)CCC2

1: 21.4; 2: 35.1; 3: -13.3; 4: 4.37; 5: 5.95

Below are 7 molecules. Give each one its inhibition.
1. CC(C)COc1ccc(C(=O)NC(CC(C)C)C(=O)O)cc1 (stereo unspecified)
2. N/C(=N\S(=O)(=O)c1ccc(Cl)s1)c1ccccc1
3. CC1(C)C2CCC1(C)C(NC(=O)CCN1CCCCC1)C2 (stereo unspecified)
4. CCN(CC)c1nc(C)c2c(c1C#N)CC(C)(C)OC2
5. COc1ccc(OCC(O)CN2C(=O)NC(C)(C)C2=O)cc1 (stereo unspecified)
6. CC1=C(C#N)C(=O)OC(C)(C)C1
7. CC(=O)c1cccc(N=C2NC(=O)C(CO)(CO)S2)c1

1: -13.3; 2: 7.83; 3: 5.95; 4: 13.4; 5: 9.42; 6: -1.98; 7: -2.09

Provide inhibition for all items below, preserving their order.
1. Cc1cc(=O)oc(C)c1C(=O)NC1CC(C)(C)NC(C)(C)C1
2. CCOC(=O)CSc1nnc2n(Cc3ccccc3)c(=O)c3c4c(sc3n12)CCC4
3. COc1ccc(C2C=C(c3ccc(C)cc3)Nc3ncnn32)cc1 (stereo unspecified)
4. COc1ccc(/C(O)=C2/C(=O)C(=O)N(Cc3ccco3)C2c2cccs2)cc1 (stereo unspecified)
5. CCOC(=O)c1cnn2c1[nH]c(=O)c1ccccc12
6. CCOC(=O)COn1c(=O)c(-c2ccc(OC)c(OC)c2)[n+]([O-])c2ccccc21

-10.1
13.4
-3.97
3.42
17.8
-1.98

----------
Would you mind telling me the reported fluorescence slope of each entry?
Target: Voltage-gated potassium channel subunit beta-2 (Rattus norvegicus)
Experiment: KvBeta enzyme negative modulators, primary screen, biochemical, NADPH fluorescence (AID 622);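 also: slope of raw intensity against log time taken from 70 to 1610 s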
Conditions: recombinant KvBeta, 4-cyanobenzaldehyde reduction, at 10 µM, stronger effect = higher value
Calls of active or inactive are those of the source.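 How the source made its calls: active means fluorescence slope higher than the sample average by over 3 SD (cut at about -0.22 in these data, passing the limit was not always enough); inactive means the rest.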

Solved cases (8 shown):
compound: Cc1sc(NC(=O)CSc2nnc(COc3ccccc3)n2C)c(C#N)c1C
fluorescence slope: -0.335 (inactive)
//
compound: COc1ccc(/C(O)=C2/C(=O)C(=O)N(CCCN(C)C)C2c2ccccc2)cc1Cl (centres undefined)
fluorescence slope: -0.452 (inactive)
//
compound: COC(=O)n1c(=S)oc2cc(Cl)ccc21
fluorescence slope: -0.638 (inactive)
//
compound: COC(=O)CCc1c(C)[nH]c(=S)[nH]c1=O
fluorescence slope: -0.521 (inactive)
//
compound: c1ccc(CSc2nnc(-c3cccs3)n2Cc2ccco2)cc1
fluorescence slope: -0.488 (inactive)
//
compound: Cc1ccc(-c2nn(C)c(=O)c3ccccc23)cc1CN1CCOCC1
fluorescence slope: -0.452 (inactive)
//
compound: C(=N\n1cnnc1)/c1cccc(Oc2ccccc2)c1
fluorescence slope: -0.515 (inactive)
//
compound: COc1ccc(CNC(=O)c2cnc3n(c2=O)CCS3)cc1
fluorescence slope: -0.369 (inactive)

# map each compound to its fluorescence slope
1. Cc1ccc2nc(NC(=O)CN(C)S(=O)(=O)c3cccc4nsnc34)sc2c1
2. CN(C)C(=O)N1CCCC(C(=O)NCc2ccccc2)C1 (centres undefined)
3. Cc1nnc(N(C)C(=O)Cc2ccc3c(c2)OCO3)s1
4. Cc1nc2sc(C(c3ccco3)N3CCN(c4ccccc4F)CC3)c(O)n2n1 (centres undefined)
5. N#C/C(=C(/O)CN1CCOCC1)c1nc2ccccc2s1
6. CC(C)(CSc1nncn1N)NS(=O)(=O)c1ccc(Cl)cc1

1: -0.41 (inactive); 2: -0.341 (inactive); 3: -0.55 (inactive); 4: -0.436 (inactive); 5: -0.452 (inactive); 6: -0.447 (inactive)

List fluorescence slope for every entry below, keeping the order given.
1. CC(C)c1ncc(C(O)c2cccc3ccccc23)n1C (centres undefined)
2. CC(C)CN1C(=O)c2ccc(C(=O)Nc3ccccn3)cc2C1=O
3. CCN(CC)S(=O)(=O)c1ccc(Br)c(OC)c1

1. -0.494 (inactive)
2. -0.495 (inactive)
3. -0.371 (inactive)

I need fluorescence slope for every entry listed below, if you could help.
1. CCC(C)NC(=O)c1cn(CC)c2ccc(S(=O)(=O)N(C)C)cc2c1=O (centres undefined)
2. COc1ccc(C2=NOC(C(=O)NC3CCCCC3)C2)cc1OC (centres undefined)
3. CC(C)(C)SCCNC(=O)CN1C(=O)c2ccccc2S1(=O)=O
4. Cc1cc(NCCNC2=CC(=O)CCC2)nc2ccccc12
5. O=C(CC(C(=O)N1CCc2ccccc21)n1ccnc1)NCc1cccnc1 (centres undefined)
6. Cc1cn2c(-c3ccc(Cl)cc3)nnc2s1
7. O=C(CSc1ncccn1)NCc1ccccc1

1: -0.376 (inactive); 2: -0.547 (inactive); 3: -0.499 (inactive); 4: -0.431 (inactive); 5: -0.446 (inactive); 6: -0.563 (inactive); 7: -0.531 (inactive)

----------
Experiment: inhibitors of TNFa-induced NFkB p65 translocation, primary screen, imaging, HUVEC, MLSMR starter and 10KST1 sets (AID 438);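 also: compound added about 3h40 before a 20 min TNFalpha stimulation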
Conditions: HUVEC TNFa-induced p65 nuclear translocation; measured here: nuclei count (cytotoxicity indicator), at 2.08 µM
value_type: cell count
Answers are plain numbers.

molecule: COc1cccc(Cn2c(NCc3ccco3)nc3c2c(=O)n(C)c(=O)n3C)c1
cell count: 704

Go through the list and state cell count for each entry.
1. Cc1c(C#N)c2ncnc(-c3ccccc3)c2n1-c1ccccc1
2. COCCNc1oc(-c2ccc(F)cc2)nc1C#N
3. CC1CN(c2nc(-c3ccccc3)nc3ccccc23)CC(C)O1 (stereo unspecified)

287
631
407

Below is a list of molecules. For each, state its recorded cell count.
1. O=C(CC1Oc2ccc(Cl)cc2NC1=O)NC1CCCCCC1 (stereo unspecified)
2. CN(C)CCOC(=O)Cc1ccc(Cl)cc1
3. FC(F)(F)c1cccc(-n2cccc2/C=N/n2cnnc2)c1
4. CC(C)COc1ccc(C(=O)NC(CC(C)C)C(=O)O)cc1 (stereo unspecified)
5. COc1ccc(S(=O)(=O)C(C#N)c2nc3ccccc3nc2N2CCCC(C)C2)cc1 (stereo unspecified)
6. N#Cc1cc2c(nc1SCC(=O)N1CCCCC1)CCCC2

615
622
415
649
714
220

Would you mind telling me what cell count value was observed for `Cc1oc2c(CN3CCOCC3)c(O)ccc2c(=O)c1-c1ccc(Br)cc1` ? 543

----------
Assay: inhibitors of mutant huntingtin aggregation, primary screen, imaging, exon1htt(103Q)mCFP cells, high-content imaging (AID 483);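 also: compound exposure lasted 3 days before fixation; percent of the per-plate median nuclei count of sample wells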
Conditions: exon1htt(103Q)mCFP cell line, aggregate imaging, at 2 µM; measured here: cell count, toxicity
value_type: nuclei count (%)
One number for each entry, in %.

compound: COc1cccc(OC)c1OCCNCCO
nuclei count, %: 118
--
compound: COc1cccc(NC(=O)C2CCCN(S(=O)(=O)c3cccc4cccnc34)C2)c1 (configuration not stated)
nuclei count, %: 90.7
--
compound: Cc1ccccc1-n1c(=O)cc(NCc2ccc3c(c2)OCO3)[nH]c1=O
nuclei count, %: 74.9

Quick request: nuclei count for each listed item, please.
1. COC(=O)c1c(O)ccc(Oc2ccccc2)c1C(=O)OC
2. CN(C)c1ccnc(NCc2ccccc2)c1C#N
3. COc1cc(Br)cc(CN2CCN(C/C=C/c3ccccc3)CC2)c1O
4. O=C(CSc1nnc(-c2ccc(Br)o2)n1Cc1ccccc1)c1ccccc1F
5. COC(=O)c1cc(OC)c(OC)cc1NC(=O)c1ccc(Br)o1
6. CCC1(C(=O)OC)NC(c2cccc(F)c2)C2C(=O)N(C)C(=O)C21 (configuration not stated)

1: 71.8; 2: 72.9; 3: 98.5; 4: 87.1; 5: 95.4; 6: 101
